meta.source: the RNAGym collection of RNA variant scans (doi:10.7554/elife.90254)

B1: LINE1-full (parent)
chain: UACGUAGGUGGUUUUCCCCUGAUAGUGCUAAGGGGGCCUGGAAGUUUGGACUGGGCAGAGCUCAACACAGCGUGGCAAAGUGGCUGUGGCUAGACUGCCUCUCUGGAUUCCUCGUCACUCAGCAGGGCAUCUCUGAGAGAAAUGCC

Variants of: B1
Assay: self-cleavage, relative activity (ratio to wild type); higher = more cleavage; in vitro, sequencing; the parent is a self-cleaving ribozyme
assay readout: self-cleavage

>  <sequence variant>
U9C A30G

>  <assay readout>
self-cleavage

>  <numeric readout>
1.21

$$$$
>  <sequence variant>
U62G U115G

>  <assay readout>
self-cleavage

>  <numeric readout>
0.14

$$$$
>  <sequence variant>
U47A A79G

>  <assay readout>
self-cleavage

>  <numeric readout>
1.05

$$$$
>  <sequence variant>
A50G A117G

>  <assay readout>
self-cleavage

>  <numeric readout>
1.97

$$$$
>  <sequence variant>
A69G A92U

>  <assay readout>
self-cleavage

>  <numeric readout>
0.13

$$$$
>  <sequence variant>
U1C G86A

>  <assay readout>
self-cleavage

>  <numeric readout>
0.06

$$$$
>  <sequence variant>
A121C A138G

>  <assay readout>
self-cleavage

>  <numeric readout>
2.34

$$$$
>  <sequence variant>
U52C A138G

>  <assay readout>
self-cleavage

>  <numeric readout>
1.48

$$$$
>  <sequence variant>
G75U C90U

>  <assay readout>
self-cleavage

>  <numeric readout>
0.03

$$$$
>  <sequence variant>
U15A A140G

>  <assay readout>
self-cleavage

>  <numeric readout>
1.11

$$$$
>  <sequence variant>
U96A U143G

>  <assay readout>
self-cleavage

>  <numeric readout>
0.1

$$$$
>  <sequence variant>
C3U U100A

>  <assay readout>
self-cleavage

>  <numeric readout>
0.68

$$$$
>  <sequence variant>
A121C U143C

>  <assay readout>
self-cleavage

>  <numeric readout>
1.99

$$$$
>  <sequence variant>
A6U A141G

>  <assay readout>
self-cleavage

>  <numeric readout>
0.94

$$$$
>  <sequence variant>
C18A G58U

>  <assay readout>
self-cleavage

>  <numeric readout>
0.07

$$$$
>  <sequence variant>
U62A U85G

>  <assay readout>
self-cleavage

>  <numeric readout>
0

$$$$
>  <sequence variant>
C18A A138G

>  <assay readout>
self-cleavage

>  <numeric readout>
2.26

$$$$
>  <sequence variant>
U9C G75A

>  <assay readout>
self-cleavage

>  <numeric readout>
1.4

$$$$
>  <sequence variant>
U52C U100A

>  <assay readout>
self-cleavage

>  <numeric readout>
0.63

$$$$
>  <sequence variant>
U96A U108A

>  <assay readout>
self-cleavage

>  <numeric readout>
0.13

$$$$
>  <sequence variant>
C110U G122A

>  <assay readout>
self-cleavage

>  <numeric readout>
1.09

$$$$
>  <sequence variant>
U12G U87A

>  <assay readout>
self-cleavage

>  <numeric readout>
0.09

$$$$
>  <sequence variant>
U102A G114A

>  <assay readout>
self-cleavage

>  <numeric readout>
1.57

$$$$
